- Tested on: Phosphorylated Ribosomal Protein S6 (RPS6) in THP-1 cells
- assay.summary: THP-1 RPS6 ELISA Assay
- Format: cell-based, Human
- conditions.used: Homo sapiens; THP-1 cells, serum starved, 2 hours compound, 10 nM MCP-1 for 15 minutes, Phospho-RPS6 ELISA; read-out: PI3Kγ_THP1_RPS6_ELISA IC50
measurement.label: IC50

[2H]C([2H])([2H])c1ccc(C(O)(CO)C(F)(F)F)cc1-c1cnc(N)c(C(=O)NCC(C)(C)C#N)n1 (single isomer, unassigned); < 100 nM
Cc1ccc(C(O)(CO)C(F)(F)F)cc1-c1cnc(N)c(-c2cnsc2)n1 (single isomer, unassigned); < 100 nM

Fill in: IC50 of [2H]C([2H])([2H])c1ccc(C(O)(CO)C(F)(F)F)cc1-c1cnc(N)c(C(=O)NC2CC(C#N)C2)n1 (single isomer, unassigned) is ___
< 100 nM

====

- target.entity: PI3Kδ (p110δ/p85α) Recombinant Human Protein (Homo sapiens (Human), UniProt O00329)
- Sequence (O00329 whole entry): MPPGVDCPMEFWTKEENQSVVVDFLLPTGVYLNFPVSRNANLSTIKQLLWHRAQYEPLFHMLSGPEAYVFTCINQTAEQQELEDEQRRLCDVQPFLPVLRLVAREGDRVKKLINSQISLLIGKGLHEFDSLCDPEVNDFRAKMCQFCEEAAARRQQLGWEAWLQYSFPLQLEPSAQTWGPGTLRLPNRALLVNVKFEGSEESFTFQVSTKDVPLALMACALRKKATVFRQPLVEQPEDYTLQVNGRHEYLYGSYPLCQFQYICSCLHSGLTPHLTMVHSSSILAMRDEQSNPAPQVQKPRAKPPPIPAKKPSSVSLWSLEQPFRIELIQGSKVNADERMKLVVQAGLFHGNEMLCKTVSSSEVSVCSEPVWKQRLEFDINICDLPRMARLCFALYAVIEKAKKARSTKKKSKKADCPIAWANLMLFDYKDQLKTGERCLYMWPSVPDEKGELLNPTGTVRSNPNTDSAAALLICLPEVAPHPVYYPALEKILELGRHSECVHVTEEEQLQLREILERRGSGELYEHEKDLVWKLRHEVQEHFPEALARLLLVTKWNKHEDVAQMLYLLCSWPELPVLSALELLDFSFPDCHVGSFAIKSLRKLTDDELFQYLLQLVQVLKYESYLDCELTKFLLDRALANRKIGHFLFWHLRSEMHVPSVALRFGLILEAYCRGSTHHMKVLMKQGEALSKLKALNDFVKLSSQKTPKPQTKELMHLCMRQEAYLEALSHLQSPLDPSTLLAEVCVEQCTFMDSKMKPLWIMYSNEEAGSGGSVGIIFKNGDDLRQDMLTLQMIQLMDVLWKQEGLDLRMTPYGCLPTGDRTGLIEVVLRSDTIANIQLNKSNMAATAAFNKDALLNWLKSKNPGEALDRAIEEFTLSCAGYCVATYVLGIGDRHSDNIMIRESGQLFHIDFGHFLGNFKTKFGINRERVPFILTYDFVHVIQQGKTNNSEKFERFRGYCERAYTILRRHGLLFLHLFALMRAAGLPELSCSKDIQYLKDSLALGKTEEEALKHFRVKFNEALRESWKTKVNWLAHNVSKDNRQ
- Sequence (P27986 whole entry partner): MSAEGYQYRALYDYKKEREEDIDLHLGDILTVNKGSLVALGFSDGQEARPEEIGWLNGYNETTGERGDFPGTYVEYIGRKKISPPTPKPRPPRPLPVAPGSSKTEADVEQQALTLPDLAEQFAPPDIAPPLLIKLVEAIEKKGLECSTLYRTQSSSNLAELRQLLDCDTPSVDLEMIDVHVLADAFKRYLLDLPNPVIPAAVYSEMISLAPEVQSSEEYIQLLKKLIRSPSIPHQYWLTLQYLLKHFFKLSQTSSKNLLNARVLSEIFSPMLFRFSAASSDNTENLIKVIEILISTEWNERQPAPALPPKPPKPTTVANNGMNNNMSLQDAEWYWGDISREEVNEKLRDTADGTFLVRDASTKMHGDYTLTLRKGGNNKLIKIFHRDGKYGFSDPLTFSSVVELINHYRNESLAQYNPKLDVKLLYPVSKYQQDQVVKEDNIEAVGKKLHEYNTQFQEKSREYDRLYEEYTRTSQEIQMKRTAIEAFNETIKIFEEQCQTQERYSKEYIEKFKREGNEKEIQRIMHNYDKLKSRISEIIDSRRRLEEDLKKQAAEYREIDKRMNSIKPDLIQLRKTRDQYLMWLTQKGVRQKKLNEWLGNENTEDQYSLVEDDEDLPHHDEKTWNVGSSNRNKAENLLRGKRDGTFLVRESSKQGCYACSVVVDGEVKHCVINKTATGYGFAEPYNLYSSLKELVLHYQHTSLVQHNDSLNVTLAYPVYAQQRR
- assay.summary: PI3Kδ Scintillation Proximity Assay
- Type: biochemical
- conditions.used: 20 μM PIP2, 2 μM ATP, 3.4 nM PI3Kδ, 120 min, room temperature
Each entry below lists one item and its recorded IC50 value.

[2H]C([2H])([2H])c1ccc(C(O)(CO)C(F)F)cc1-c1cnc(N)c(C(=O)NC2CCOCC2)n1 (single isomer, unassigned); ≤ 100 nM
[2H]C([2H])([2H])c1ccc(C(O)(C(O)C(F)(F)F)C(F)(F)F)cc1-c1cnc(N)c(-c2c[nH]nc2C)n1 (stereo not drawn) [Example 21]; ≤ 100 nM
Cc1ccc(C(O)(CO)C(F)(F)F)cc1-c1cnc(N)c(C(=O)N[C@@H](C)CO)n1 (single isomer, unassigned); ≤ 100 nM
[2H]C([2H])([2H])c1ccc(C(O)(CO)C(F)(F)F)cc1-c1cnc(N)c(C(=O)NC2CCOCC2)n1 (single isomer, unassigned); ≤ 100 nM
[2H]C([2H])([2H])n1nccc1-c1nc(-c2cc(C(O)(CO)C(F)(F)F)ccc2C)cnc1N (single isomer, unassigned) [Example 1b]; ≤ 500 nM

Now for a further compound.
Fill in: IC50 of Cc1ccc(C(O)(CO)C(F)(F)F)cc1-c1cnc(N)c(C(=O)NC23CCC(O)(CC2)C3)n1 (single isomer, unassigned) is ___
≤ 100 nM

====

- target.entity: PI3Kγ (p110γ) Recombinant Human Protein (Homo sapiens (Human))
- assay.summary: PI3K-γ Scintillation Proximity Assay
- conditions.used: 20 μM PIP2, 2 μM ATP, 13 nM PI3Kγ, 120 min, room temperature
measurement.label: IC50

Past entries and their recorded results:
Cc1ncc(-c2nc(-c3cc(C(O)(CO)C(F)(F)F)ccc3C)cnc2N)o1 (single isomer, unassigned) [Example 9]; ≤ 100 nM
[2H]C([2H])([2H])c1ccc(C(O)(CO)C(F)(F)F)cc1-c1cnc(N)c(C(=O)N[C@]2(C)C[C@H](O)C2)n1 (single isomer, unassigned) [Example 30]; ≤ 100 nM

Now for a further compound.
Record lookup: for PI3Kγ (p110γ) Recombinant Human Protein (Homo sapiens (Human)), what IC50 belongs to [2H]C([2H])([2H])c1ccc(C(O)(CO)C(F)(F)F)cc1-c1cnc(N)c(-c2cnc(C)o2)n1 (single isomer, unassigned) [Example 16] ?
≤ 100 nM

====

Each entry below lists one item and its recorded pIC50 value.
- System: Phosphorylated Ribosomal Protein S6 (RPS6) in THP-1 cells
- assay.summary: THP-1 RPS6 ELISA Assay
- Format: cell-based, Human
- conditions.used: Homo sapiens; THP-1 cells, serum starved, 2 hours compound, 10 nM MCP-1 for 15 minutes, Phospho-RPS6 ELISA; read-out: PI3Kγ_THP1_RPS6_ELISA IC50
pIC50: −log10 of the molar value.

Past entries and their recorded results:
[2H]C([2H])([2H])c1ccc(C(O)(CO)C(F)(F)F)cc1-c1cnc(N)c(C(=O)N[C@@H](C)CO)n1 (single isomer, unassigned); > 7.00
Cc1ccc(C(O)(CO)C(F)F)cc1-c1cnc(N)c(C(=O)NC2(C)CCOC2)n1 (stereo not drawn); > 7.00

Fill in: pIC50 of Cc1ccc([C@](O)(CO)C(F)F)cc1-c1cnc(N)c(C(=O)N[C@@H](C)CO)n1 (single isomer, unassigned) is ___
> 6.30

====

- target.entity: PI3Kδ (p110δ/p85α) Recombinant Human Protein (Homo sapiens (Human), UniProt O00329)
- assay.summary: PI3Kδ Scintillation Proximity Assay
- conditions.used: 20 μM PIP2, 2 μM ATP, 3.4 nM PI3Kδ, 120 min, room temperature
pIC50: −log10 of the molar value.
measurement.label: pIC50

Past entries and their recorded results:
Cc1ccc(C(O)(CO)C(F)(F)F)cc1-c1cnc(N)c(C(=O)NC23CC(CO)(C2)C3)n1 (single isomer, unassigned); ≥ 7.00
Cc1ccc(C(O)(CO)C(F)F)cc1-c1cnc(N)c(C(=O)NC2(C)CCOC2)n1 (stereo not drawn); ≥ 7.00
[2H]C([2H])([2H])n1nccc1-c1nc(-c2cc(C(O)(CO)C(F)(F)F)ccc2C)cnc1N (single isomer, unassigned) [Example 1a]; ≥ 7.00
[2H]C([2H])([2H])c1ccc(C(O)(CO)C(F)(F)F)cc1-c1cnc(N)c(C(=O)N[C@H]2CCCC[C@@H]2O)n1 (single isomer, unassigned); ≥ 6.30
[2H]C([2H])([2H])c1ccc(C(O)(CO)C(F)F)cc1-c1cnc(N)c(C(=O)N[C@H]2CCCC[C@@H]2O)n1 (single isomer, unassigned); > 5.70

Record lookup: for PI3Kδ (p110δ/p85α) Recombinant Human Protein (Homo sapiens (Human), UniProt O00329), what pIC50 belongs to [2H]C([2H])([2H])c1ccc(C(O)(CO)C(F)(F)F)cc1-c1cnc(N)c(C(=O)N[C@H]2C[C@](O)(C(F)(F)F)C2)n1 (single isomer, unassigned) ?
≥ 7.00

====

- target.entity: PI3Kδ (p110δ/p85α) Recombinant Human Protein (Homo sapiens (Human), UniProt O00329)
- assay.summary: PI3Kδ Scintillation Proximity Assay
- conditions.used: 20 μM PIP2, 2 μM ATP, 3.4 nM PI3Kδ, 120 min, room temperature
pIC50: −log10 of the molar value.
measurement.label: pIC50

[2H]C([2H])([2H])c1ccc(C(O)(CO)C(F)F)cc1-c1cnc(N)c(C(=O)NC23CCC(O)(CC2)C3)n1 (single isomer, unassigned); ≥ 7.00
Cc1ccc(C(O)(C(C)(C)O)C(F)(F)F)cc1-c1cnc(N)c(C(=O)NC2CCOCC2)n1 (stereo not drawn); ≥ 6.30

Fill in: pIC50 of [2H]C([2H])([2H])c1ccc(C(O)(CO)C(F)(F)F)cc1-c1cnc(N)c(C(=O)NC23CCC(CO)(C2)C3)n1 (single isomer, unassigned) is ___
≥ 7.00

====

- target.entity: PI3Kδ (p110δ/p85α) Recombinant Human Protein (Homo sapiens (Human))
- assay.summary: PI3Kδ Scintillation Proximity Assay
- conditions.used: 20 μM PIP2, 2 μM ATP, 3.4 nM PI3Kδ, 120 min, room temperature
Each entry below lists one item and its recorded IC50 value.

Past entries and their recorded results:
[2H]C([2H])([2H])c1ccc(C(O)(C(C)O)C(F)(F)F)cc1-c1cnc(N)c(C(=O)NC2CCOCC2)n1 (single isomer, unassigned) [Example 19]; ≤ 500 nM
Cc1ncc(-c2nc(-c3cc(C(O)(CO)C(F)(F)F)ccc3C)cnc2N)o1 (single isomer, unassigned) [Example 9]; ≤ 100 nM

Fill in: IC50 of [2H]C([2H])([2H])c1ccc(C(O)(CO)C(F)F)cc1-c1cnc(N)c(C(=O)N[C@@H]2CCCC[C@H]2O)n1 (single isomer, unassigned) [Example 39] is ___
< 2000 nM

Fill in: IC50 of Cc1ccc(C(O)(CO)C(F)(F)F)cc1-c1cnc(N)c(C(=O)NCC(C)(C)C#N)n1 (single isomer, unassigned) [Example 34] is ___
≤ 100 nM

Fill in: IC50 of [2H]C([2H])([2H])c1ccc(C(O)(CO)C(F)(F)F)cc1-c1cnc(N)c(C(=O)NC2CCOCC2O)n1 (single isomer, unassigned) [Example 28] is ___
≤ 500 nM

Fill in: IC50 of Cc1ccc(C(O)(CO)C(F)(F)F)cc1-c1cnc(N)c(-n2cccn2)n1 (single isomer, unassigned) [Example 12] is ___
≤ 100 nM

====

Each entry below lists one item and its recorded IC50 value.
- target.entity: PI3Kγ (p110γ) Recombinant Human Protein (Homo sapiens (Human), UniProt P48736)
- Sequence (P48736 whole entry): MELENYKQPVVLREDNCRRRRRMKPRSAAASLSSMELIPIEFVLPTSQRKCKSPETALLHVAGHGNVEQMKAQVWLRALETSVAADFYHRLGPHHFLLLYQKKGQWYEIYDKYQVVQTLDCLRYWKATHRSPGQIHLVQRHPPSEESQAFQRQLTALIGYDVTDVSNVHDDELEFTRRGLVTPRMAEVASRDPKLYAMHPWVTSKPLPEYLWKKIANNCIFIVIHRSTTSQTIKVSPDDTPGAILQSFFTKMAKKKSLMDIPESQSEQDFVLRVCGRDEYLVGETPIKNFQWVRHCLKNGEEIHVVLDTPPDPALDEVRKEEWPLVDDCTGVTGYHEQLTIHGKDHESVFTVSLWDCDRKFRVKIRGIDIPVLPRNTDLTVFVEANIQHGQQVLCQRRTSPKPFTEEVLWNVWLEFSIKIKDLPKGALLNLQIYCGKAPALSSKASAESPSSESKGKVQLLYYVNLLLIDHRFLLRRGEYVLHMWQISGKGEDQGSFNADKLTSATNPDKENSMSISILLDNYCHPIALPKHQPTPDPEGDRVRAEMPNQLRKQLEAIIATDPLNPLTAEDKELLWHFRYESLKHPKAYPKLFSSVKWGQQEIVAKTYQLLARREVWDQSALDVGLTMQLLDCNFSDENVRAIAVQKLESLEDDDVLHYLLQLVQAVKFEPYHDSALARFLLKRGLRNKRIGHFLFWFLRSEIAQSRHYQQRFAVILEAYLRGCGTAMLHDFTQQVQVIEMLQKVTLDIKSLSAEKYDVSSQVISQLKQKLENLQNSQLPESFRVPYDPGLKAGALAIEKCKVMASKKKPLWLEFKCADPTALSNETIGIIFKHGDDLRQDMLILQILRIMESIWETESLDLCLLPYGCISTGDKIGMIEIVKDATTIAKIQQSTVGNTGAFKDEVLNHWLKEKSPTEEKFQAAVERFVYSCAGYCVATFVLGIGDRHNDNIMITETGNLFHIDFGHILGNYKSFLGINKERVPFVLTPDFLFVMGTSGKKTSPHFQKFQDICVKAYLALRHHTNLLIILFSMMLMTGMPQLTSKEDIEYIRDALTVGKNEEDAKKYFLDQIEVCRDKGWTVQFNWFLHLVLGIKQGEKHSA
- assay.summary: PI3K-γ Scintillation Proximity Assay
- conditions.used: 20 μM PIP2, 2 μM ATP, 13 nM PI3Kγ, 120 min, room temperature
- Experimental: Example B. PI3K-γ Scintillation Proximity Assay Materials: [γ-^33P]ATP (10 mCi/mL) and Wheat Germ Agglutinin (WGA) YSi SPA Scintillation Beads was purchased from Perkin Elmer (Waltham, MA). […] After the plate sealing, plates were shaken overnight at room temperature and centrifuged at 1500 rpm for 10 min, the radioactivity of the product was determined by scintillation counting on Topcount (Perkin-Elmer). […]

Past entries and their recorded results:
Cc1ccc(C(O)(CO)C(F)F)cc1-c1cnc(N)c(C(=O)NC23CCC(O)(CC2)C3)n1 (single isomer, unassigned) [Example 44]; ≤ 100 nM
[2H]C([2H])([2H])n1nccc1-c1nc(-c2cc(C(O)(CO)C(F)(F)F)ccc2C)cnc1N (single isomer, unassigned) [Example 1a]; ≤ 100 nM
[2H]C([2H])([2H])n1nccc1-c1nc(-c2cc(C(O)(CO)C(F)(F)F)ccc2C)cnc1N (single isomer, unassigned) [Example 1b]; ≤ 500 nM
[2H]C([2H])([2H])c1ccc(C(O)(CO)C(F)(F)F)cc1-c1cnc(N)c(C(=O)N[C@H]2CCCC[C@@H]2O)n1 (single isomer, unassigned) [Example 27]; ≤ 100 nM
Cc1ccc([C@](O)(CO)C(F)F)cc1-c1cnc(N)c(C(=O)N2CCC[C@@H]2CO)n1 [Example 45]; ≤ 100 nM

Fill in: IC50 of Cc1ccc(C(O)(CO)C(F)F)cc1-c1cnc(N)c(C(=O)NC23CCC(C#N)(C2)C3)n1 (single isomer, unassigned) [Example 48] is ___
≤ 100 nM
